Measured melting point, listed per entry for reference.

A selection of reference data follows.
COc1cc(OC)c2cc(C(=O)NNS(=O)(=O)c3ccccc3)oc2c1 (hydrate or solvate) [Example 60] = 230.6 to 231 °C
O=C(NNS(=O)(=O)c1ccc(F)cc1Cl)c1cc2cc(Cl)ccc2o1 [Example 30] = 204.6 to 206.2 °C
Cc1cccc(S(=O)(=O)NNC(=O)c2cnc3ccccc3c2)c1 (hydrate or solvate) [Example 129] = 238.6 to 239.4 °C
O=C(NNS(=O)(=O)c1cc(C(F)(F)F)cc(C(F)(F)F)c1)c1ccc2oc3ccccc3c2c1 [Example 32] = 244.7 to 245.5 °C
COc1cccc2cc(C(=O)NNS(=O)(=O)c3ccccc3C(F)(F)F)oc12 (hydrate or solvate) [Example 54] = 156.8 to 157.6 °C
O=C(NNS(=O)(=O)c1ccc(F)c(F)c1)c1ccc2oc3ccccc3c2c1 [Example 37] = 210.1 to 210.5 °C

Give recorded melting point. Cc1cccc(S(=O)(=O)NNC(=O)c2cc3cc(Cl)cc(Cl)c3o2)c1 [Example 72]
230.4 to 231.1 °C

###

Measured IC50, listed per entry for reference.
- system.name: rat BCAT cytosolic form (Rattus norvegicus, UniProt P54690)
- Sequence (P54690 whole entry): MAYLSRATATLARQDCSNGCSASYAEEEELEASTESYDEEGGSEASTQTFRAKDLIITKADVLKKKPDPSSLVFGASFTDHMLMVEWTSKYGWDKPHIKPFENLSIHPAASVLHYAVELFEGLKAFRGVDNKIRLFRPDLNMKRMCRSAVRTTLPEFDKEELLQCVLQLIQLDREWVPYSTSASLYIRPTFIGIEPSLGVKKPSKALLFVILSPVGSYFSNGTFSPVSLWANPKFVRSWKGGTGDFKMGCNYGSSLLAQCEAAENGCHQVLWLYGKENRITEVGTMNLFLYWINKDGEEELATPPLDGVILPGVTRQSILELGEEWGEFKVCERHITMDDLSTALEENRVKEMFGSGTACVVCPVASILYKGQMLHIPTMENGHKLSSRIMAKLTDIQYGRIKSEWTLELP
- procedure.text: In vitro coupled enzyme assay (glutamate dehydrogenase, NADH formation), rat BCATc
- experimental.parameters: recombinant rat BCATc, 37° C., 25 mM phosphate buffer pH 7.8; several values in a cell = repeat determinations; read-out: RrBCATc
# unit: nM | format: bare number

Cc1ccc2oc(C(=O)NNS(=O)(=O)c3cccc(Cl)c3C)cc2c1 [Example 82] = 510
COc1c(C(=O)NNS(=O)(=O)c2ccccc2)oc2cc3ccccc3cc12 [Example 68] = 310
CCc1ccc(S(=O)(=O)NNC(=O)c2cc3cccc(OC)c3o2)cc1 [Example 108] = 5600
O=C(NNS(=O)(=O)c1ccc(F)c(Cl)c1)c1ccc2ccccc2c1 [Example 115] = 5200

Give recorded IC50. O=C(NNS(=O)(=O)c1ccc(F)cc1Cl)c1ccc2oc3ccccc3c2c1 [Example 25]
1800

Give recorded IC50. O=C(NNS(=O)(=O)c1ccccc1OC(F)(F)F)c1cc2cc(Cl)ccc2o1 [Example 52]
300

###

measured.metric: melting point

A selection of reference data follows.
CN(C)c1ccc2[nH]c(C(=O)NNS(=O)(=O)c3ccccc3)cc2c1.Cl = 251.6 to 252.7 °C
O=C(NNS(=O)(=O)c1cccc(F)c1)c1ccc2oc3ccccc3c2c1 [Example 35] = 222.6 to 223.3 °C
COc1c(C(=O)NNS(=O)(=O)c2ccccc2)oc2ccc(Cl)cc12 (hydrate or solvate) [Example 78] = 242.2 to 244.2 °C

The record that follows has no melting point shown yet.
Give recorded melting point. O=C(NNS(=O)(=O)c1ccccc1Br)c1cc2cc(Cl)cc(Cl)c2o1 (hydrate or solvate) [Example 73]
196.2 to 196.6 °C
